Experiment: AUC (0 to infinity) in ICR(CD-1) mouse at 10 mg/kg, po administered via gavage by triple quadrupole mass spectrometric analysis
Format: ADME, organism-based
Parameters: dose 10 mg/kg, route oral, time infinity
Details: in vivo
AUC(0-inf) values for the molecules below.
outcomeMeasure: AUC(0-inf)

{"molecule": "Cc1ccc(C(=O)Nc2cccc(C(F)(F)F)c2)cc1-c1ccc2c(-c3cnn(C)c3)n[nH]c2c1", "outcomeMeasure": "AUC(0-inf)", "val": "3480 ng·h/mL"}
{"molecule": "Cc1ccc(C(=O)Nc2cccc(C(F)(F)F)c2)cc1-c1ccc2c(-c3cnn(C4CC4)c3)n[nH]c2c1", "outcomeMeasure": "AUC(0-inf)", "val": "7680 ng·h/mL"}
{"molecule": "Cc1ccc(C(=O)Nc2cc(CN3CCN(C)CC3)cc(C(F)(F)F)c2)cc1-c1ccc2c(-c3cnn(C4CC4)c3)n[nH]c2c1", "outcomeMeasure": "AUC(0-inf)", "val": "610 ng·h/mL"}
{"molecule": "Cc1ccc(C(=O)Nc2cccc(C(F)(F)F)c2)cc1-c1ccc2c(-c3cnn(C4CCN(C)CC4)c3)n[nH]c2c1", "outcomeMeasure": "AUC(0-inf)", "val": "563 ng·h/mL"}
{"molecule": "Cc1ccc(C(=O)Nc2cccc(C(F)(F)F)c2)cc1-c1ccc2c(-c3cnn(CC(C)O)c3)n[nH]c2c1 (stereo not given)", "outcomeMeasure": "AUC(0-inf)", "val": "334 ng·h/mL"}

====

Listed here: compounds with reported pIC50 for Discoidin domain-containing receptor 2 (Homo sapiens).
pIC50: −log10 of the molar value.

{"compound": "Cc1ccc(NC(=O)c2cccc(C(F)(F)F)c2)cc1-c1ccc2cn[nH]c2c1", "pIC50": 8.26}
{"compound": "Cc1ccc(C(=O)Nc2cccc(C(F)(F)F)c2)cc1-c1ccc2c(-c3ccc(N4CCOCC4)cc3)n[nH]c2c1", "pIC50": 7.67}
{"compound": "Cc1ccc(C(=O)Nc2cccc(C(F)(F)F)c2)cc1-c1ccc2c(-c3cnn(C(C)C)c3)n[nH]c2c1", "pIC50": 8.11}
{"compound": "Cc1ccc(C(=O)Nc2cccc(C(F)(F)F)c2)cc1-c1ccc2c(-c3ccc(N4CCC(N5CCOCC5)CC4)cc3)n[nH]c2c1", "pIC50": 8.06}
{"compound": "Cc1ccc(C(=O)Nc2cccc(C(F)(F)F)c2)cc1-c1ccc2c(-c3cnn(CC(C)O)c3)n[nH]c2c1 (stereo not drawn)", "pIC50": 8.43}
{"compound": "Cc1ccc(C(=O)Nc2cc(CN3CCN(CCO)CC3)cc(C(F)(F)F)c2)cc1-c1ccc2cn[nH]c2c1", "pIC50": 8.47}
{"compound": "CCN1CCN(Cc2cc(NC(=O)c3ccc(C)c(-c4ccc5cn[nH]c5c4)c3)cc(C(F)(F)F)c2)CC1", "pIC50": 8.41}
{"compound": "Cc1ccc(C(=O)Nc2ccc(CN3CCN(C)CC3)cc2)cc1-c1ccc2cn[nH]c2c1", "pIC50": 8.17}
{"compound": "Cc1ccc(C(=O)Nc2cccc(C(F)(F)F)c2)cc1-c1ccc2c(-c3cnn(C4CCCCO4)c3)n[nH]c2c1 (stereo not drawn)", "pIC50": 8.28}
{"compound": "CCCn1cc(-c2n[nH]c3cc(-c4cc(C(=O)Nc5cccc(C(F)(F)F)c5)ccc4C)ccc23)cn1", "pIC50": 8.49}
{"compound": "Cc1ccc(C(=O)Nc2cccc(C(C)C)c2)cc1-c1ccc2cn[nH]c2c1", "pIC50": 8.92}
{"compound": "Cc1ccc(C(=O)NCc2cccc(C(F)(F)F)c2)cc1-c1ccc2cn[nH]c2c1", "pIC50": 8.10}
{"compound": "Cc1ccc(C(=O)Nc2cccc(C(F)(F)F)c2)cc1-c1ccc2c(-c3cnn(CCN4CCOCC4)c3)n[nH]c2c1", "pIC50": 8.59}

====

Test: MRT in ICR(CD-1) mouse at 10 mg/kg, po administered via gavage by triple quadrupole mass spectrometric analysis
Type: ADME, organism-based
Settings: in vivo
Kindly return t if reported MRT is no lower than 3 h; return f if it is lower.

{"molecule": "Cc1ccc(C(=O)Nc2cccc(C(F)(F)F)c2)cc1-c1ccc2c(-c3cnn(C4CCN(C)CC4)c3)n[nH]c2c1", "discreteLabel": "t"}
{"molecule": "Cc1ccc(C(=O)Nc2cccc(C(F)(F)F)c2)cc1-c1ccc2c(-c3cnn(C)c3)n[nH]c2c1", "discreteLabel": "t"}
{"molecule": "Cc1ccc(C(=O)Nc2cc(CN3CCN(C)CC3)cc(C(F)(F)F)c2)cc1-c1ccc2c(-c3cnn(C4CC4)c3)n[nH]c2c1", "discreteLabel": "t"}
{"molecule": "Cc1ccc(C(=O)Nc2cccc(C(F)(F)F)c2)cc1-c1ccc2c(-c3cnn(C4CC4)c3)n[nH]c2c1", "discreteLabel": "t"}
{"molecule": "Cc1ccc(C(=O)Nc2cccc(C(F)(F)F)c2)cc1-c1ccc2c(-c3cnn(CC(C)O)c3)n[nH]c2c1 (stereo not given)", "discreteLabel": "f"}

====

AUC(0-t) values for the molecules below.
Assay: AUC (0 to t) in ICR(CD-1) mouse at 10 mg/kg, po administered via gavage by triple quadrupole mass spectrometric analysis
Type: ADME, organism-based
Conditions: in vivo
outcomeMeasure: AUC(0-t) (ng·h/mL)

{"molecule": "Cc1ccc(C(=O)Nc2cccc(C(F)(F)F)c2)cc1-c1ccc2c(-c3cnn(C4CCN(C)CC4)c3)n[nH]c2c1", "outcomeMeasure": "AUC(0-t)", "val": 552}
{"molecule": "Cc1ccc(C(=O)Nc2cccc(C(F)(F)F)c2)cc1-c1ccc2c(-c3ccc(N4CCN(C)CC4)cc3)n[nH]c2c1", "outcomeMeasure": "AUC(0-t)", "val": 44}
{"molecule": "Cc1ccc(C(=O)Nc2cc(CN3CCN(C)CC3)cc(C(F)(F)F)c2)cc1-c1ccc2c(-c3cnn(C4CC4)c3)n[nH]c2c1", "outcomeMeasure": "AUC(0-t)", "val": 66.2}
{"molecule": "Cc1ccc(C(=O)Nc2cccc(C(F)(F)F)c2)cc1-c1ccc2c(-c3cnn(C4CC4)c3)n[nH]c2c1", "outcomeMeasure": "AUC(0-t)", "val": 7640}
{"molecule": "Cc1ccc(C(=O)Nc2cccc(C(F)(F)F)c2)cc1-c1ccc2c(-c3cnn(CC(C)O)c3)n[nH]c2c1 (stereo unspecified)", "outcomeMeasure": "AUC(0-t)", "val": 324}
{"molecule": "Cc1ccc(C(=O)Nc2cccc(C(F)(F)F)c2)cc1-c1ccc2c(-c3cnn(C)c3)n[nH]c2c1", "outcomeMeasure": "AUC(0-t)", "val": 3480}

====

Molecular target: Discoidin domain-containing receptor 2 (Homo sapiens) (UniProt Q16832)
Sequence (whole entry): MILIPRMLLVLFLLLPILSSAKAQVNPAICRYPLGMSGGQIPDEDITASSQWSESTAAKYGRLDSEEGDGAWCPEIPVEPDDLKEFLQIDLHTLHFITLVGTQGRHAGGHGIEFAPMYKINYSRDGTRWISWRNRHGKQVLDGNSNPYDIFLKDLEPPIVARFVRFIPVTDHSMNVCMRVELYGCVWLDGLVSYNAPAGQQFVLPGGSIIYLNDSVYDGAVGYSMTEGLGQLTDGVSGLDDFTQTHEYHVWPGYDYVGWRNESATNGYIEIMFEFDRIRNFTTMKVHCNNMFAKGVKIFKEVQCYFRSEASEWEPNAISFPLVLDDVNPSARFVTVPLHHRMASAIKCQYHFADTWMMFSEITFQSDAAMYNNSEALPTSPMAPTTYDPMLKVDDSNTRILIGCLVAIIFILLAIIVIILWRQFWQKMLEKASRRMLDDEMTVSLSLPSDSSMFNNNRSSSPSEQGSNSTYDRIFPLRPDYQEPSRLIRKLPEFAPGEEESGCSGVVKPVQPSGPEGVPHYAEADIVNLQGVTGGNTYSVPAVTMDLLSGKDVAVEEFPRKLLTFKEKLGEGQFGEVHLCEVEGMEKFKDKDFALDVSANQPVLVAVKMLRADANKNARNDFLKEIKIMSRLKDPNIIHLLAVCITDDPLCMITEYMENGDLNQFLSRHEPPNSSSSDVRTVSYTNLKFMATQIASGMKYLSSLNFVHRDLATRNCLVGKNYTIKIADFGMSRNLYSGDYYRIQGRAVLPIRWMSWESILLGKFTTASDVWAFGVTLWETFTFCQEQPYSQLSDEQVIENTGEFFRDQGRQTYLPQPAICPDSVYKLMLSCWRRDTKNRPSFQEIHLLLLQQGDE
Test: Inhibition of DDR2 (unknown origin) at 100 nM using poly (Glu, Tyr) 4:1 substrate after 60 mins by ELISA relative to control
outcomeMeasure: inhibition

{"chemSmiles": "Cc1cc(NC(=O)c2cccc(C(F)(F)F)c2)cc(-c2ccc3cn[nH]c3c2)c1", "val": "27.4%"}
{"chemSmiles": "Cc1ccc(C(=O)Nc2cccc(N3CCN(C)CC3)c2)cc1-c1ccc2cn[nH]c2c1", "val": "37.3%"}
{"chemSmiles": "O=C(Nc1cccc(-c2ccc3cn[nH]c3c2)c1)Nc1cccc(C(F)(F)F)c1", "val": "20.1%"}
{"chemSmiles": "O=C(Nc1cccc(C(F)(F)F)c1)c1cccc(-c2ccc3cn[nH]c3c2)c1", "val": "58.2%"}
{"chemSmiles": "Cc1ccc(C(=O)NCc2cccc(N3CCN(C)CC3)c2)cc1-c1ccc2cn[nH]c2c1", "val": "23.2%"}
{"chemSmiles": "Cc1ccc(-c2ccc3cn[nH]c3c2)cc1NC(=O)c1cccc(C(F)(F)F)c1", "val": "37.3%"}
{"chemSmiles": "Cc1c(NC(=O)c2cccc(C(F)(F)F)c2)cccc1-c1ccc2cn[nH]c2c1", "val": "41.8%"}
{"chemSmiles": "Cn1ncc2ccc(-c3cccc(NC(=O)c4cccc(C(F)(F)F)c4)c3)cc21", "val": "7.6%"}
{"chemSmiles": "Nc1n[nH]c2ccc(-c3cccc(NC(=O)c4cccc(C(F)(F)F)c4)c3)cc12", "val": "13.1%"}
{"chemSmiles": "Cc1ccc(C(=O)Nc2ccc(N3CCN(C)CC3)cc2)cc1-c1ccc2cn[nH]c2c1", "val": "25.8%"}
{"chemSmiles": "Nc1n[nH]c2cc(-c3cccc(NC(=O)c4cccc(C(F)(F)F)c4)c3)ccc12", "val": "22.8%"}

Hey, just so you know, these numbers are from ChEMBL document CHEMBL4411287.
